biological target: hMRG-X1 receptor (Homo sapiens); experiment: Receptor trafficking/internalization assay (InCell, Transfluor) in U2OS-hMRGX1-βarrGFP cells; type: cell-based; conditions: IC50 InCell, 60 μM BAM15 (EC80), receptor trafficking
pIC50: −log10 of the molar value.
Please note: true applies when pIC50 is 5 or greater, and false applies otherwise.

Before answering, review these 4 worked examples.
[[record]]
compound = "O=C(Nc1ccccc1Cl)OC1C2CCN(CC2)C1C(c1ccccc1)c1ccccc1 (stereo not drawn) [Compound 6]"
study_target = "hMRG-X1 receptor (Homo sapiens)"
assigned_class = "true"

[[record]]
compound = "O=C(Nc1cccc([N+](=O)[O-])c1)OC1C2CCN(CC2)C1C(c1ccccc1)c1ccccc1 (stereo not drawn)"
study_target = "hMRG-X1 receptor (Homo sapiens)"
assigned_class = "true"

[[record]]
compound = "COc1ccc(C(=O)OC2C3CCN(CC3)C2C(c2ccccc2)c2ccccc2)cc1OC (stereo not drawn)"
study_target = "hMRG-X1 receptor (Homo sapiens)"
assigned_class = "true"

[[record]]
compound = "O=C(Nc1ccccc1Cl)OC1C2CCN(CC2)C1C(c1ccccc1)c1ccccc1 (stereo not drawn) [Compound 14]"
study_target = "hMRG-X1 receptor (Homo sapiens)"
assigned_class = "false"


Is pIC50 for O=C(Nc1cccc2ccccc12)OC1C2CCN(CC2)C1C(c1ccccc1)c1ccccc1 (stereo not drawn) at or above 5? true

###

biological target: hMRG-X1 receptor (Homo sapiens, UniProt Q96LB2); experiment: Whole cell receptor binding assay with 3H-BAM in CHO-hMRG-X1-NFAT-BLA cells; conditions: 10 nM 3H-BAM, 4° C., read-out: IC50 Binding
Sequence (Q96LB2 whole entry): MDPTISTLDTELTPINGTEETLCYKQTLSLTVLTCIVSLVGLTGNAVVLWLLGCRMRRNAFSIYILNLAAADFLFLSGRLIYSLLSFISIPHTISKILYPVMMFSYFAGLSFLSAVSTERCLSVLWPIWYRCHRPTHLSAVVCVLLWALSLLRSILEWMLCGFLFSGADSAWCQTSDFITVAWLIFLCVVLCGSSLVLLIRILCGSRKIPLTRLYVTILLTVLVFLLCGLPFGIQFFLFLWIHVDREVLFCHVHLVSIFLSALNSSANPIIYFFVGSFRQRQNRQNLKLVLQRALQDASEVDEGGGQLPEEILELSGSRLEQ
pIC50: −log10 of the molar value.
Please note: true (1) applies when pIC50 is 6 or greater, and false (0) applies otherwise.

[[record]]
compound = "N#Cc1ccc(COC2C3CCN(CC3)C2C(c2ccccc2)c2ccccc2)cc1 (stereo not drawn) [Compound 16]"
assigned_class = "false (0)"


Is pIC50 for COc1ccccc1NC(=S)NC1C2CCN(CC2)C1C(c1ccccc1)c1ccccc1 (stereo not drawn) [Compound 15] at or above 6? false (0)

Is pIC50 for OC(C=C1C2CCN(CC2)C1C(c1ccccc1)c1ccccc1)c1ccc(F)cc1 (stereo not drawn) [Compound 8] at or above 6? true (1)

Is pIC50 for COc1ccccc1C(O)C=C1C2CCN(CC2)C1C(c1ccccc1)c1ccccc1 (stereo not drawn) [Compound 3] at or above 6? true (1)

###

Measured IC50, listed per entry for reference.
Target: hMRG-X1 receptor (Homo sapiens, UniProt Q96LB2)
Test: Beta-lactamase (BLA) reporter-gene assay in CHO-hMRG-X1-NFAT/BLA cells
Assay type: cell-based
Settings: IC50 BLA, antagonism of BAM15-induced BLA response
Procedure: BLA assays in 384-well plates were performed essentially as described previously (11). For miniaturization of the BLA assay into 3456-well format, cells were serum-starved for ˜18 hours in assay medium (11) the day before the assay. […] The cellular response was also observed by fluorescence microscopy with UV illumination. […]
Give your result in nM as a bare value.

[[record]]
compound = "COc1ccc(C(=O)OC2C3CCN(CC3)C2C(c2ccccc2)c2ccccc2)cc1OC (stereo not drawn)"
measured = 64

[[record]]
compound = "O=C(OC1C2CCN(CC2)C1C(c1ccccc1)c1ccccc1)c1ccccc1C(F)(F)F (stereo not drawn)"
measured = 252

[[record]]
compound = "O=C(Nc1cccc2ccccc12)OC1C2CCN(CC2)C1C(c1ccccc1)c1ccccc1 (stereo not drawn)"
measured = 124

[[record]]
compound = "O=C(Nc1ccccc1Cl)OC1C2CCN(CC2)C1C(c1ccccc1)c1ccccc1 (stereo not drawn) [Compound 6]"
measured = 140

[[record]]
compound = "O=C(Nc1ccccc1Cl)OC1C2CCN(CC2)C1C(c1ccccc1)c1ccccc1 (stereo not drawn) [Compound 14]"
measured = 375


# evaluate next
Return the recorded IC50 value; entry: O=C(Nc1cccc([N+](=O)[O-])c1)OC1C2CCN(CC2)C1C(c1ccccc1)c1ccccc1 (stereo not drawn) 290

###

target: hMRG-X1 receptor (Homo sapiens, UniProt Q96LB2); test: Intracellular Ca2+ (FLIPR) assay in CHO-hMRG-X1-NFAT/Bla cells; format: cell-based; conditions: inhibition of BAM15-induced i[Ca2+] response; read-out: IC50 FLIPR
Threshold check on IC50: strictly below 500 nM is met; on or above 500 nM is not met.

Before answering, review these 3 worked examples.
[[record]]
molecule = "FC(F)(F)c1ccccc1CNC1C2CCN(CC2)C1C(c1ccccc1)c1ccccc1 (centres unmarked)"
assigned_class = "met"

[[record]]
molecule = "Cc1cc(C)cc(C(O)C=C2C3CCN(CC3)C2C(c2ccccc2)c2ccccc2)c1 (centres unmarked)"
assigned_class = "not met"

[[record]]
molecule = "COc1ccccc1NC(=S)NC1C2CCN(CC2)C1C(c1ccccc1)c1ccccc1 (centres unmarked)"
assigned_class = "not met"


Does this molecule meet the criterion IC50 < 500 nM? OC(C=C1C2CCN(CC2)C1C(c1ccccc1)c1ccccc1)c1ccc(F)cc1 (centres unmarked) met

Does this molecule meet the criterion IC50 < 500 nM? C(Cc1ccccc1)=C1C2CCN(CC2)C1C(c1ccccc1)c1ccccc1 (centres unmarked) met

Does this molecule meet the criterion IC50 < 500 nM? COc1ccccc1C(O)C=C1C2CCN(CC2)C1C(c1ccccc1)c1ccccc1 (centres unmarked) met

Does this molecule meet the criterion IC50 < 500 nM? OC(C=C1C2CCN(CC2)C1C(c1ccccc1)c1ccccc1)c1cccc(C(F)(F)F)c1 (centres unmarked) met

###

target: hMRG-X1 receptor (Homo sapiens, UniProt Q96LB2); experiment: Whole cell receptor binding assay with 3H-BAM in CHO-hMRG-X1-NFAT-BLA cells; conditions: [3H]-BAM15
Where no end group is shown, it is not given here.
readout_label: Kd (µM)
Give your result in µM as a bare value.

Return the recorded Kd value; entry: VGRPEWWMDYQKRYG [BAM15, reference compound] 0.08

Numbers sourced from patent US20080027095A1.
